test system: anesthetized rats (evoked responses of anterior tibial muscle); assay: In vivo neuromuscular block and cardiovascular side effects, anesthetized rat (Example 8, Table 3); conditions: rat, in vivo
observable: ΔH (change in heart rate)
Please don't drop the unit; write it after the number.

Lab entry: anesthetized rats (evoked responses of anterior tibial muscle) assay, compound CC(=O)Oc1ccc(C[N+]2(C)C3CCCC2CC(OC(=O)C2CCC2C(=O)OC2CC4CCCC(C2)[N+]4(C)Cc2ccc(OC(C)=O)c(OC(C)=O)c2)C3)cc1OC(C)=O.[Br-].[Br-] (centres unmarked) , ΔH (change in heart rate) = 0%

Form field, ΔH (change in heart rate) with anesthetized rats (evoked responses of anterior tibial muscle), item CCC(=O)Oc1ccc(C[N+]2(C)C3CCCC2CC(OC(=O)CCCCCC(=O)OC2CC4CCCC(C2)[N+]4(C)Cc2ccc(OC(=O)CC)c(OC(=O)CC)c2)C3)cc1OC(=O)CC.[Br-].[Br-] (centres unmarked) : −3%

Tested on anesthetized rats (evoked responses of anterior tibial muscle), the item COc1cc(C[N+]23CCC(CC2)C(OC(=O)[C@@H]2[C@@H](C(=O)OC4C[N+]5(Cc6ccc(OC(C)=O)c(OC)c6)CCC4CC5)[C@H]4C=C[C@@H]2C4)C3)ccc1OC(C)=O.[Br-].[Br-] (relative stereo) showed ΔH (change in heart rate) equal to −5%

// assay anesthetized rats (evoked responses of anterior tibial muscle), entry CC(=O)Oc1ccc(C[N+]2(C)C3CCCC2CC(OC(=O)CCCC(=O)OC2CC4CCCC(C2)[N+]4(C)Cc2ccc(OC(C)=O)c(OC(C)=O)c2)C3)cc1OC(C)=O.[Br-].[Br-] (centres unmarked) , ΔH (change in heart rate) value = 0%

Bench note, anesthetized rats (evoked responses of anterior tibial muscle): entry CCC(=O)Oc1ccc(C[N+]2(C)C3CCCC2CC(OC(=O)C2CCC2C(=O)OC2CC4CCCC(C2)[N+]4(C)Cc2ccc(OC(=O)CC)c(OC(=O)CC)c2)C3)cc1OC(=O)CC.[Br-].[Br-] (centres unmarked) , its ΔH (change in heart rate) = 0%
